System: A549
Test: Euclidean distance of Cell Painting phenotypic profile (signed KS, 77 features) to DMSO centroid (dimensionless distance); 5 or 10 uM (library dependent); higher = stronger phenotypic change vs DMSO (phenoactivity)
Settings: 48 h
Where a name gives a salt, the structure may show the parent alone.
What Euclidean distance was measured for each of the following?

// below: answered compounds
# compound, reported.result
rows = [
    ("O=C(Oc1ccccc1C(=O)O)c1ccccc1O [Sasapyrine]", 0.394),
    ("C=CC(=O)N1CCC(CNc2ncnc(N)c2-c2ccc(Oc3ccccc3)cc2)CC1 [Evobrutinib]", 0.683),
    ("CSCCNc1nc(SCCC(F)(F)F)nc2c1ncn2[C@@H]1O[C@H](COP(=O)(O)OP(=O)(O)C(Cl)(Cl)P(=O)(O)O)[C@@H](O)[C@H]1O [Cangrelor Tetrasodium]", 1.07),
]

Report Euclidean distance for each item below.
1. CCCCCCCCCCCCCCCC(=O)O[C@@H]1[C@@H](O)[C@@H](O)[C@@H]([C@H](NC(=O)[C@@H]2C[C@@H](CCC)CN2C)[C@H](C)Cl)O[C@@H]1SC [Clindamycin palmitate HCl]
2. COc1cccc2cc(-c3nc([C@H]4CC[C@H](C(=O)O)CC4)n4ncnc(N)c34)[nH]c12

Out:
1.05
2.18

----------
Test system: OVCAR4
Test: Euclidean distance of Cell Painting phenotypic profile (signed KS, 77 features) to DMSO centroid (dimensionless distance); 5 or 10 uM (library dependent); higher = stronger phenotypic change vs DMSO (phenoactivity)
Settings: 48 h
What Euclidean distance was measured for each of the following?
One number for each entry.

// below: answered molecules
# molecule, Euclidean distance
data = [
    ("CCCN[C@H]1CCc2nc(N)sc2C1 [Pramipexole 2HCl Monohydrate]", 1.26),
    ("NC(=O)c1cnc(N[C@@H]2CCCC[C@@H]2N)nc1Nc1cccc(-n2nccn2)c1", 2.83),
]

Turning now to a further record.
Simply: `CN1CCC(=C2c3ccccc3CCn3c(C=O)cnc32)CC1` , OVCAR4, Euclidean distance = 1.22

----------
What Euclidean distance was measured for each of the following?
System: HEPG2
Experiment: Euclidean distance of Cell Painting phenotypic profile (signed KS, 77 features) to DMSO centroid (dimensionless distance); 5 or 10 uM (library dependent); higher = stronger phenotypic change vs DMSO (phenoactivity)
Conditions: 48 h
Where a name gives a salt, the structure may show the parent alone.
Answers are plain numbers.

// below: answered molecules
# molecule, assay.system, Euclidean distance
records = [
    ("CCN1CCN(c2ccc(Nc3cc(N(C)C(=O)Nc4c(Cl)c(OC)cc(OC)c4Cl)ncn3)cc2)CC1 [BGJ398 (NVP-BGJ398|Infigratinib)]", "HEPG2", 2.39),
    ("CC(C)(C)C(O)/C=C/c1ccc2c(c1)OCO2 (stereo unspecified) [Stiripentol]", "HEPG2", 0.456),
]

Report Euclidean distance for each item below.
1. Cc1ccc(C(=O)c2ccc(CC(=O)O)n2C)cc1 [Tolmetin]
2. CC(C)N(C[C@H]1O[C@@H](n2cnc3c(N)ncnc32)[C@H](O)[C@@H]1O)[C@H]1C[C@@H](CCc2nc3cc(C(C)(C)C)ccc3[nH]2)C1
3. CN1CCC(=C2c3ccccc3CCc3cccnc32)CC1 [Azatadine dimaleate]
4. N=C(NCCCCCCNC(=N)NC(=N)Nc1ccc(Cl)cc1)NC(=N)Nc1ccc(Cl)cc1 [Chlorhexidine]
5. CC(C)(C)NCC(O)COc1cccc2c1CCC(=O)N2 (stereo unspecified) [Carteolol HCl]
6. NS(=O)(=O)c1cc(Cl)c(Cl)c(S(N)(=O)=O)c1 [Dichlorphenamide]
7. CCC(C)(C)c1ccc(CC(C)CN2C[C@@H](C)O[C@@H](C)C2)cc1 (stereo partly specified) [Amorolfine HCl]
8. Nc1ccc(S(=O)(=O)Nc2ncccn2)cc1 [Sulfadiazine]

Out:
0.964
0.884
0.437
2.92
0.541
0.87
0.635
2.25

src = the supplement of paper PMC10127200
